Reference source: paper PMC8041284

# Experimental System: BTK (Homo sapiens, UniProt Q06187)
# Sequence (Q06187 402-655 limits assumed): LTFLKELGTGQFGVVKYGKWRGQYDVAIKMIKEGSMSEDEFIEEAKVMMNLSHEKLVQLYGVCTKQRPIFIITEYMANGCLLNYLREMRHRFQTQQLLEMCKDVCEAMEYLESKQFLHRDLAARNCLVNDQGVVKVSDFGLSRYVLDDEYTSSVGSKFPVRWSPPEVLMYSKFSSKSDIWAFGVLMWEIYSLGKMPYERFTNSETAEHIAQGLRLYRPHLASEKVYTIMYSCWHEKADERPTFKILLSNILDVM
# Protocol Summary: biochemical
# Study Conditions: read-out: BTK inhibition (%), 0.75 uM BTK, […] probe 3l, 15 min preincubation
Measured Attribute: inhibition at 10 µM (%)
Please state the figure in %; there is no need to write the unit.

# example entries with known answers
>>> meas_value("O=C(O)/C=C/c1ccc(O)cc1")
-21.8
>>> meas_value("CC1(C)[C@@H](OC(=O)CCC(=O)O)CC[C@]2(C)[C@H]3C(=O)C=C4[C@@H]5C[C@@](C)(C(=O)O)CC[C@]5(C)CC[C@@]4(C)[C@]3(C)CC[C@@H]12")
26.5

// map CCCCCCCCCC(C)O (stereo not drawn) to recorded inhibition at 10 µM (system: BTK (Homo sapiens, UniProt Q06187))
-30.1

// map "Fc1ccc(Cn2c(Cl)nc3ccccc32)cc1" to recorded inhibition at 10 µM (system: BTK (Homo sapiens, UniProt Q06187))
-52.5

// map "COc1cc2ncc(-c3ccccc3)nc2cc1OC" to recorded inhibition at 10 µM (system: BTK (Homo sapiens, UniProt Q06187))
-13.8

// map "C/C=C(/C)C(=O)O[C@H]1Cc2cc3ccc(=O)oc3cc2OC1(C)C" to recorded inhibition at 10 µM (system: BTK (Homo sapiens, UniProt Q06187))
0.8

###

# Experimental System: BTK (Homo sapiens, UniProt Q06187)
# Study Conditions: 0.75 uM BTK, […] probe 3l, 15 min preincubation, 10 µM, inhibitor, BTK inhibition (%)
Measured Attribute: BTK inhibition (%)
Please state the figure in %; there is no need to write the unit.

# example entries with known answers
>>> meas_value("C=C[C@]1(C)C[C@@H](OC(=O)CSCCN(CC)CC)[C@]2(C)[C@H](C)CC[C@]3(CCC(=O)[C@H]32)[C@@H](C)[C@@H]1O [PCM-0215106]")
-8.5
>>> meas_value("CO/N=C(\\C(=O)N[C@@H]1C(=O)N2C(C(=O)O)=C(CSC(=O)c3ccco3)CS[C@H]12)c1csc(N)n1 [PCM-0214692]")
0
>>> meas_value("Nc1nc2[nH]cc(CCc3ccc(C(=O)N[C@@H](CCC(=O)O)C(=O)O)cc3)c2c(=O)[nH]1 [PCM-0090283]")
2.6
>>> meas_value("O=C1O[C@H]([C@@H](O)CO)C(O)=C1O [PCM-0085940]")
5.4
>>> meas_value("Cc1c(O)c(=O)ccn1C [PCM-0090746]")
-11.9
>>> meas_value("Cc1cc(C2CCCCC2)n(O)c(=O)c1 [PCM-0086120]")
28
>>> meas_value("CC1(C)[C@@H](O[C@H]2O[C@H](C(=O)O)[C@@H](O)[C@H](O)[C@H]2O[C@@H]2O[C@H](C(=O)O)[C@@H](O)[C@H](O)[C@H]2O)CC[C@]2(C)[C@H]3C(=O)C=C4[C@@H]5C[C@@](C)(C(=O)O)CC[C@]5(C)CC[C@@]4(C)[C@]3(C)CC[C@@H]12 [PCM-0214876]")
35.9
>>> meas_value("O=C(Nc1ccc2c(O)cc(S(=O)(=O)O)cc2c1)Nc1ccc2c(O)cc(S(=O)(=O)O)cc2c1 [PCM-0215497]")
21.6
>>> meas_value("CC(C(=O)O)c1cccc(Oc2ccccc2)c1 (stereo not drawn) [PCM-0214813]")
4.8
>>> meas_value("COc1ccc2[nH]c([S@@+]([O-])Cc3ncc(C)c(OC)c3C)nc2c1 [PCM-0214815]")
-10.9

Query: BTK inhibition (%); subject: CN1CC[C@H](c2c(O)cc(O)c3c(=O)cc(-c4ccccc4Cl)oc23)[C@H](O)C1 [PCM-0095354]
17.2

Query: BTK inhibition (%); subject: COc1cc(NS(=O)(=O)c2ccc(N)cc2)nc(OC)n1 [PCM-0086362]
-7.8

Query: BTK inhibition (%); subject: C[C@H](O)[C@H](O)[C@@H](O)[C@@H](O)C=O [PCM-0094862]
-7.8

Query: BTK inhibition (%); subject: CC(=O)Oc1ccccc1C(=O)O [PCM-0064532]
7.6

Query: BTK inhibition (%); subject: CC[C@H]1OC(=O)[C@H](C)[C@@H](O[C@H]2C[C@@](C)(OC)[C@@H](O)[C@H](C)O2)[C@H](C)[C@@H](O[C@@H]2O[C@H](C)C[C@H](N(C)C)[C@H]2O)[C@](C)(O)C[C@@H](C)C(=O)[C@H](C)[C@@H](O)[C@]1(C)O [PCM-0214693]
5.4

###

# Experimental System: BTK (Homo sapiens)
# Protocol Summary: biochemical
# Study Conditions: read-out: BTK inhibition (%), 0.75 uM BTK, […] probe 3l, 15 min preincubation
Quick reference: inhibition at 10 µM of the listed items.
Please state the figure in %; there is no need to write the unit.

# example entries with known answers
>>> meas_value("CC(NC(C)(C)C)C(=O)c1cccc(Cl)c1 (stereo not drawn) [PCM-0064429]")
-3.9
>>> meas_value("C=C[C@@H]1C[C@]1(NC(=O)[C@@H]1C[C@@H](Oc2ncc(OC)c3ccc(Cl)cc23)CN1C(=O)[C@@H](NC(=O)OC(C)(C)C)C(C)(C)C)C(=O)NS(=O)(=O)C1CC1 [PCM-0215095]")
-4.7

Query: inhibition at 10 µM; subject: COC(=O)[C@]12CCC(C)(C)C[C@H]1[C@H]1C(=O)C=C3[C@@]4(C)C=C(C#N)C(=O)C(C)(C)[C@@H]4CC[C@@]3(C)[C@]1(C)CC2 [PCM-0215239]
16.6

Query: inhibition at 10 µM; subject: COC(=O)c1ccco1 [PCM-0216224]
-23.9

Query: inhibition at 10 µM; subject: O=Cc1ccc(O[C@@H]2O[C@H](CO)[C@@H](O)[C@@H](O)[C@H]2O)cc1 [PCM-0215018]
7

Query: inhibition at 10 µM; subject: COc1ccc(C(=O)C2CCN(CC(=O)N(Cc3nc4c(c(=O)[nH]3)COCC4)CC3CC3)CC2)cc1 [PCM-0215580]
-6.9

Query: inhibition at 10 µM; subject: CCCCCCCCCCCC(=O)O [PCM-0214847]
-69.3

Query: inhibition at 10 µM; subject: O=C(Nc1cccc(C(F)(F)F)c1)Nc1cc(S(=O)(=O)NC2CC2)ccc1-c1ccsc1 [PCM-0095800]
27

Query: inhibition at 10 µM; subject: Cc1ccc(C(=O)Cn2c3c(sc2=N)CCCC3)cc1 [PCM-0095433]
-11.7

Query: inhibition at 10 µM; subject: CN1C[C@@H]2c3ccccc3Oc3ccc(Cl)cc3[C@H]2C1 [PCM-0095064]
9.3

Query: inhibition at 10 µM; subject: CN(C)c1ccc(C(=C2C=CC(=[N+](C)C)C=C2)c2ccc(N(C)C)cc2)cc1 [PCM-0090111]
116

Query: inhibition at 10 µM; subject: CCCCCCNC(=O)n1cc(F)c(=O)[nH]c1=O [PCM-0065487]
-7

Query: inhibition at 10 µM; subject: CCOC(=O)c1ccc(NC(=O)O[C@H]2[C@H](OC(=O)Nc3ccc4c(c3)OCO4)[C@@H](OC(=O)Nc3ccc4c(c3)OCO4)[C@@H](OC)O[C@@H]2CO)cc1 [PCM-0215463]
98.1

###

# Experimental System: UniProtKB Q06187
# Protocol Summary: biochemical
# Study Conditions: read-out: BTK inhibition (%), 0.75 uM BTK, […] probe 3l, 15 min preincubation
Response key: MET means inhibition at 10 µM >= -10%; NOT MET means inhibition at 10 µM < -10%.

Could you tell me if the measured inhibition at 10 µM of "CNC(=O)c1ccc(-c2cnc3ncc(Cc4ccc5ncccc5c4)n3n2)cc1F" reaches -10% or more?
NOT MET

Could you tell me if the measured inhibition at 10 µM of "CN(c1ncccc1CNc1nc(Nc2ccc3c(c2)CC(=O)N3)ncc1C(F)(F)F)S(C)(=O)=O" reaches -10% or more?
MET

Could you tell me if the measured inhibition at 10 µM of "NCc1c[nH]c(=S)n1[C@H]1CCc2c(F)cc(F)cc2C1" reaches -10% or more?
NOT MET

Could you tell me if the measured inhibition at 10 µM of "Nc1ccc(O)cc1" reaches -10% or more?
MET

Could you tell me if the measured inhibition at 10 µM of "CC(C)(C)c1cc(NC(=O)Nc2ccc(-c3cn4c(n3)sc3cc(OCCN5CCOCC5)ccc34)cc2)no1" reaches -10% or more?
MET

Could you tell me if the measured inhibition at 10 µM of "Nc1ccc(S(N)(=O)=O)cc1" reaches -10% or more?
MET

Could you tell me if the measured inhibition at 10 µM of "CN1CCC(=C2c3ccccc3CCn3c(C=O)cnc32)CC1" reaches -10% or more?
MET

Could you tell me if the measured inhibition at 10 µM of "CC(C)=C1CC[C@@H](C)CC1=O" reaches -10% or more?
MET

Could you tell me if the measured inhibition at 10 µM of "CNC(=O)[C@H](Cc1ccccc1)NC(=O)[C@H](CC(C)C)[C@H](CSc1cccs1)C(=O)NO" reaches -10% or more?
MET

Could you tell me if the measured inhibition at 10 µM of "O=c1c2ccccc2oc2ccccc12" reaches -10% or more?
NOT MET

Could you tell me if the measured inhibition at 10 µM of "CC(C)C(=O)OCC(=O)[C@@]12O[C@H](C3CCCCC3)O[C@@H]1C[C@H]1[C@@H]3CCC4=CC(=O)C=C[C@]4(C)[C@H]3[C@@H](O)C[C@@]12C" reaches -10% or more?
MET
